# EXPERIMENTAL TARGET: DLG5_1, Q8TDM6
# Sequence (Q8TDM6 617-713): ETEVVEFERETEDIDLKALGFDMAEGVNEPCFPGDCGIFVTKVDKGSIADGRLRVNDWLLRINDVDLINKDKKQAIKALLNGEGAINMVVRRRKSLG
# ASSAY OVERVIEW: holdup assay
# Set-up: key: below the threshold = too weak to quantify, mostly under pKd 3.1 to 4
# CONDITION INFO: plain residues with an end cap or a label only (N-terminal biotin on a linker: ado-ado)
READOUT LABEL: pKd

Use these answered entries as a reference point.
binder="LPHPHSTTRV [NLGN2, Q8NFZ4]" readout_label=pKd recorded_result="below the threshold"
binder="RHGSCVETSL [TMEM151B, Q8IW70]" readout_label=pKd recorded_result="below the threshold"
binder="PRISRSQSEL [CCDC134, Q9H6E4]" readout_label=pKd recorded_result="below the threshold"
binder="ETQVTAETVI [TMEM225B, P0DP42]" readout_label=pKd recorded_result="below the threshold"
binder="PEYLGLDVPV [ERBB2, P04626]" readout_label=pKd recorded_result="below the threshold"

Given the binder LRSPRTPSEV [OR10G3, Q8NGC4] , what is its reported pKd?
below the threshold

Query: pKd; subject: GNSVLKSTQF [SLC22A12, Q96S37]
below the threshold

Item PPYRHRNTVV [ERBB4, Q15303] has what recorded pKd?
below the threshold

Given the entry DTTVPESEDL [MYOZ2, Q9NPC6] , report its measured pKd.
below the threshold

For the binder RRRESYSTTV [EVI5, O60447] , what pKd is on record?
below the threshold

Item under review: KKMPSIESDV [GRIN2A, Q12879] . Reported pKd?
below the threshold

What does the record list as pKd for TSQESEDTYL [TBC1D10A, Q9BXI6] ?
below the threshold

Looking for the measured pKd of VDSTVKVWTC [TRAF7, Q6Q0C0] , can you help?
3.56

Param item = EVEEFPETSV [TRPV3, Q8NET8] ; retrieve measured pKd.
3.7

Need pKd of GQEEQVTTRL [TRPC5, Q9UL62] , thanks.
below the threshold

Which pKd is reported for this binder? KKAPTNEFYA [SDC4, P31431]
below the threshold
